Each entry below carries its recorded TGI.
- System: OVCAR-8 ovarian
- assay notes: NCI tumour cell line growth inhibition, 48 h
Unit µM implied. Number only.

compound=C/C(C=O)=N\Nc1cc(C)c2ccccc2n1 assayed_target="OVCAR-8 ovarian" readout_kind=TGI observed=34.8
compound=Cc1c(-c2ccccc2)c(-c2ccc(OCCN(C)C)cc2)n2ccccc12 assayed_target="OVCAR-8 ovarian" readout_kind=TGI observed=28.5
compound=CC1(C)CCSC(/C=C/c2ccccc2)=N1 assayed_target="OVCAR-8 ovarian" readout_kind=TGI observed=29.8
compound="OCCNc1nc(NCCO)nc(Nc2ccc(C3=NN(c4cc(Cl)cc(Cl)c4)C(c4ccc(Cl)cc4)C3)cc2)n1 (stereo unspecified)" assayed_target="OVCAR-8 ovarian" readout_kind=TGI observed=4.75
compound="C=CCOc1cc2c(cc1C(C)c1ccc(OC)cc1)OCO2 (stereo unspecified)" assayed_target="OVCAR-8 ovarian" readout_kind=TGI observed=5.97

// returns reported TGI for input CNC(=O)c1cc(Oc2ccc3nc(NC(=O)Nc4ccc(Cl)c(Cl)c4)sc3c2)ccn1
5.27

Likewise for CC[C@@]1(O)C(=O)NCc2c1cc1n(c2=O)Cc2cc3cc4c(cc3nc2-1)OCO4 ?
6.99

Proceed to Cc1ccc2c(ccc3c[n+]4ccccc4c(C)c32)c1
16.2

Try this compound next: CC[C@@]1(O)C(=O)OCc2c1c(Cl)c1n(c2=O)Cc2cc3ccccc3nc2-1
22.9

---

# GI50 annotations
- Test system: U251 CNS
- assay notes: NCI tumour cell line growth inhibition, 48 h

compound=Cn1c2ccccc2c2c(=O)n(CCCC(=O)NCC(=O)OC(=NC3CCCCC3)NC3CCCCC3)c3c(-c4ccccc4)nnn3c21 assayed_target="U251 CNS" observed="12.4 µM"
compound=S=C(Nc1ccccc1)c1ccccn1 assayed_target="U251 CNS" observed="38 µM"
compound=CC(=O)OCC(=O)[C@@]1(O)[C@H](C)C[C@H]2[C@@H]3C=C(C)C4=Cc5c(cnn5-c5ccc(F)cc5)C[C@]4(C)[C@H]3[C@@H](O)C[C@@]21C assayed_target="U251 CNS" observed="1.25 µM"
compound=Cc1c(C(=O)/C=C/c2ccc(O)cc2)nnn1-c1ccnc2c(C(F)(F)F)cccc12 assayed_target="U251 CNS" observed="5.14 µM"
compound=COc1cc2c(cc1OCCCCCOc1cc(-c3ccc(F)cc3)nc(C)n1)N=C[C@@H]1CCCN1C2=O assayed_target="U251 CNS" observed="> 34.8 µM"

Entry C[C@]12CC[C@H]3[C@@H](CC=C4C[C@@H](O)CC[C@@]43C)[C@@H]1C/C(=C\c1cccc(OCCN3CCOCC3)c1)[C@@H]2O has what GI50?
> 100 µM

Another compound: COc1cc2c(/C=C3/C(=O)Nc4ccccc43)c(Cl)n(Cc3ccccc3)c2cc1C
> 100 µM

Entry O=C(O)C(/C=C/c1ccco1)=N\Nc1nc(-c2ccc(Cl)cc2)cs1 please
4.59 µM

Same question for Cc1ccc(NC(=O)c2ccnc(C(F)(F)F)c2)cc1-c1cc(OCCO)nc(N2CCOCC2)c1 please.
4.7 µM

And c1ccc(-c2nc(Nc3ccc(-c4nc5ccccc5[nH]4)cc3)nc(N3CCOCC3)n2)cc1 ?
0.535 µM

Also need O=C(Nc1ccccc1Cl)c1cnc2ccc(C3CCNCC3)cn12 , thanks.
51.7 µM

---

- Test system: MOLT-4 leukemia
- assay notes: NCI tumour cell line growth inhibition, 48 h
List of TGI values.

Example cases with answers are listed next.
compound="CCCCCC(=O)N1c2ccccc2NC2=C(C(=O)CC(c3ccc(OC)c(OC)c3)C2)C1c1ccc(C(F)(F)F)cc1 (stereo not given)" observed="> 100 µM"
compound=O=[N+]([O-])c1cccc(-c2nc3sccn3c2-c2ccnc(NCCCNS(=O)(=O)c3ccc(F)cc3)n2)c1 observed="5.52 µM"
compound=O=C(CNC(=O)c1cccc2ccccc12)Nc1ccccc1Oc1cccc(O)c1 observed="> 25 µM"

Short answer please: TGI, MOLT-4 leukemia, entry Nc1ccc(N=Nc2ccc(/C=C/c3ccc(N=Nc4ccc(N)c5ccc(S(=O)(=O)O)cc45)cc3S(=O)(=O)O)c(S(=O)(=O)O)c2)c2cc(S(=O)(=O)O)ccc12
> 100 µM

Let us now turn to CC(SC1=CC(=O)c2c(Cl)ccc(O)c2C1=O)C(=O)O (stereo not given)
57.7 µM

---

- Tested on: KM12 colon
- assay notes: NCI tumour cell line growth inhibition, 48 h
readout kind: TGI

In the examples that follow, each entry is paired with its recorded TGI.
molecule=COc1ccc(CCN2CCC(C#N)(c3ccc(OC)c(OC)c3)CC2)cc1OC observed="> 100 µM"
molecule="C[N+](C)(C)CC1Cc2ccccc2C1=O (stereo unspecified)" observed="> 10 µM"
molecule="COc1ccc(NS(=O)CCc2ccccc2)cc1 (stereo unspecified)" observed="> 100 µM"
molecule=COc1n[n+]([O-])c(C)cc1[N+](=O)[O-] observed="30.3 µM"
molecule=CCN=C1NN=C(c2ccccc2)c2cc(Cl)ccc2N1 observed="31.1 µM"

Turning now to a further record.
What measured TGI goes with COc1cc(C2c3cccc4cccc(c34)C3CCC(=O)N32)cc(O)c1O (stereo unspecified) ?
> 50 µM

---

TGI values, listed per item
- Test system: HCC-2998 colon
- assay notes: NCI tumour cell line growth inhibition, 48 h
Please respond with the number in µM and leave the unit unwritten.

Can you share its TGI? I mean this compound: O=C1N=C2c3c(sc4c3CCCC4)N=CN2C1N=Nc1ccc(Cl)cc1 (configuration not stated)
91.2

Another: C=CCOc1cc2c(cc1C(C)c1ccc(OC)cc1)OCO2 (configuration not stated)
12.7

Could you do the same for COC(=O)n1c(=O)nc2c3c(ncn21)Oc1c(c(-c2ccccc2)nn1-c1ccccc1)C3c1ccc(Cl)cc1 (configuration not stated) , please?
2.72

---

Listing of recorded GI50 by entry.
- Tested on: KM12 colon
- assay notes: NCI tumour cell line growth inhibition, 48 h

// worked examples, GI50 included
compound=COC(=O)c1c2c(c(C)[n+]([O-])c1C)C(=O)C=C(NCc1ccc(Cl)cc1)C2=O observed="127 nM"
compound=OCCN(CO)CN(CN(CO)CCO)c1nc(N(CN(CO)CCO)CN(CO)CCO)nc(N(CN(CO)CCO)CN(CO)CCO)n1 observed="1.21 ng/mL"
compound=CCCCCCn1c(-c2ccc(C(=O)O/N=C(\N)c3ccc(OC)cc3)cc2)nc(-c2ccccc2)c1-c1ccccc1 observed="2810 nM"

Give the measured GI50 of COc1ccc(C2CC(=O)Nc3c2c(C)nn3-c2nc3ccccc3[nH]2)cc1 (centres undefined) .
2720 nM

Now consider O=C(Nc1ccccc1Cl)c1cnc2ccc(C3CCNCC3)cn12 and answer again.
> 85400 nM

Quick one: O=C(O)C(/C=C/c1ccco1)=N\Nc1nc(-c2ccc(Cl)cc2)cs1
11200 nM

---

- Test system: IGROV1 ovarian
- assay notes: NCI tumour cell line growth inhibition, 48 h
Recorded TGI values for a group of compounds are listed next.

compound=NN/C(=N\S(=O)(=O)c1cc(Cl)c(Oc2ccc([N+](=O)[O-])cc2Cl)c(Cl)c1)Nc1ccc(Cl)cc1 observed="42.3 µM"
compound=CC(=O)Nc1c(C)cc(OCC(=O)O)cc1C observed="> 100 µM"
compound="Cc1cccc(C(C)O)n1 (stereo unspecified)" observed="> 100 µM"

GET /values?readout=TGI&system=IGROV1 ovarian&item= O=C(CC(=O)Nc1ccc(Cl)cc1)NNCC(=O)Nc1nc(-c2ccccc2)cs1
> 100 µM

Also CCCCCC(=O)N1c2ccccc2NC2=C(C(=O)CC(c3ccc(OC)c(OC)c3)C2)C1c1ccc(C(F)(F)F)cc1 (stereo unspecified) , if possible.
> 100 µM

For CCOC(=O)CCc1c(C(=O)OCC)[nH]c(/C=C2/NC(=O)C(C)=C2CC)c1C then?
47.7 µM

Here is the next compound: COc1ncnc2c(NC3OC(CO)C(O)C3O)ncnc12 (stereo unspecified)
3.82 µM

Could you do the same for CCC(=O)N(c1ccccc1)C(C)CN1CCC(O)(c2ccccc2)CC1 (stereo unspecified) , please?
> 100 µM

Repeat with CC1(C)CCSC(/C=C/c2ccccc2)=N1
37.8 µM

What about this compound? C=CCOc1cc2c(cc1C(C)c1ccc(OC)cc1)OCO2 (stereo unspecified)
> 100 µM

# repeat for N#Cc1cnn2c1n[n+]([O-])c1ccc(Cl)cc12
8.53 µM

---

- Test system: SF-295 CNS
- assay notes: NCI tumour cell line growth inhibition, 48 h
readout kind: GI50

Which GI50 is listed for CCOC(=O)c1sc(=S)c2c(C(=O)c3ccccc3)c(C(=O)c3ccccc3)sc2c1C(=O)OCC ?
2860 nM

---

- System: HT29 colon
- assay notes: NCI tumour cell line growth inhibition, 48 h
readout kind: GI50

Entry N#Cc1c(NC(=O)c2cccs2)[n+]([O-])c2ccccc2[n+]1[O-] : reported GI50 = ?
> 100 µM

And what about the compound COc1ccc(Cl)cc1N1C(=O)C(Cl)=C(Nc2cccc(O)c2)C1=O ?
19.9 µM

Queued: COc1ccc(-c2ccc(/C=N/n3cn[nH]c3=S)o2)c([N+](=O)[O-])c1
32.6 µM

Please give the result for O=C(Oc1ccccc1)c1cc(O)c(O)c(O)c1 too.
30 µM

// query: O=C(O)C(/C=C/c1ccco1)=N\Nc1nc(-c2ccc(Cl)cc2)cs1
20.9 µM

Another compound to check: Nc1nc(-n2cccn2)nc(-n2cccn2)c1Br
> 100 µM
